I'd appreciate it if you could supply pIC50 values for the items below.
# Tested on: COLO357
# ASSAY_INFO: Cell proliferation assay (Sulforhodamine B), IC50
# Type: cell-based
# STATED_CONDITIONS: Homo sapiens; COLO357, 96 hours of treatment; read-out: IC50 96 h mean ± SD
Note: pIC50 values are expressed as the negative base-10 logarithm of concentration in M.

I looked up "Cc1[nH]c2ccccc2c1CCNCc1ccc(/C=C/C(=O)NO)cc1" and its pIC50 for COLO357 was 7.19

I looked up "CCCC(CCC)C(=O)O" and its pIC50 for COLO357 was 3.00

I looked up "CC(C)c1c(C(=O)Nc2ccccc2)c(-c2ccccc2)c(-c2ccc(F)cc2)n1CC[C@@H](O)C[C@@H](O)CC(=O)O" and its pIC50 for COLO357 was 4.92

I looked up "CC[C@H](C)C(=O)O[C@H]1C[C@@H](C)C=C2C=C[C@H](C)[C@H](CC[C@@H]3C[C@@H](O)CC(=O)O3)[C@H]21" and its pIC50 for COLO357 was 5.10

I looked up "CCC(C)(C)C(=O)O[C@H]1C[C@@H](C)C=C2C=C[C@H](C)[C@H](CC[C@@H]3C[C@@H](O)CC(=O)O3)[C@H]21" and its pIC50 for COLO357 was 5.22
